- assayed_target: human TLR7 (Homo sapiens (Human))
- assay_info: TLR7 inhibition reporter assay (HEK-Blue SEAP reporter, gardiquimod stimulation)
- Format: cell-based
- measurement_conditions: HEK-Blue cells overexpressing human TLR7, gardiquimod 7.5 μM
pIC50: −log10 of the molar value.
experimental_endpoint: pIC50

Known pIC50 results, listed for orientation:
compound	pIC50
CCc1c(-c2ccc(OC)c(OC)c2)[nH]c2ccc(C(=O)NCCC3CCCN3C)cc12 (stereo not shown) [Example 54]	6.69
Cc1c(-c2[nH]c3ccc(C(=O)N4CCN(C)CC4)cc3c2C(C)C)cn(C)c(=O)c1Cl [Example 220]	6.85

[a] CCc1c(-c2ccc(OC)c(OC)c2)[nH]c2ccc(C(=O)NCCc3cccnc3)cc12 [Example 51]
[b] CCc1c(-c2ccc(OC)c(OC)c2)[nH]c2ccc(C(=O)NCCC(C)(C)NS(C)(=O)=O)cc12 [Example 71]
Request: Please indicate which item has the smaller measured pIC50: a versus b The response must carry the label of the picked entry.
Response: b

---

- assayed_target: human TLR7 (Homo sapiens (Human), UniProt Q9NYK1)
- Sequence (Q9NYK1 27-1049): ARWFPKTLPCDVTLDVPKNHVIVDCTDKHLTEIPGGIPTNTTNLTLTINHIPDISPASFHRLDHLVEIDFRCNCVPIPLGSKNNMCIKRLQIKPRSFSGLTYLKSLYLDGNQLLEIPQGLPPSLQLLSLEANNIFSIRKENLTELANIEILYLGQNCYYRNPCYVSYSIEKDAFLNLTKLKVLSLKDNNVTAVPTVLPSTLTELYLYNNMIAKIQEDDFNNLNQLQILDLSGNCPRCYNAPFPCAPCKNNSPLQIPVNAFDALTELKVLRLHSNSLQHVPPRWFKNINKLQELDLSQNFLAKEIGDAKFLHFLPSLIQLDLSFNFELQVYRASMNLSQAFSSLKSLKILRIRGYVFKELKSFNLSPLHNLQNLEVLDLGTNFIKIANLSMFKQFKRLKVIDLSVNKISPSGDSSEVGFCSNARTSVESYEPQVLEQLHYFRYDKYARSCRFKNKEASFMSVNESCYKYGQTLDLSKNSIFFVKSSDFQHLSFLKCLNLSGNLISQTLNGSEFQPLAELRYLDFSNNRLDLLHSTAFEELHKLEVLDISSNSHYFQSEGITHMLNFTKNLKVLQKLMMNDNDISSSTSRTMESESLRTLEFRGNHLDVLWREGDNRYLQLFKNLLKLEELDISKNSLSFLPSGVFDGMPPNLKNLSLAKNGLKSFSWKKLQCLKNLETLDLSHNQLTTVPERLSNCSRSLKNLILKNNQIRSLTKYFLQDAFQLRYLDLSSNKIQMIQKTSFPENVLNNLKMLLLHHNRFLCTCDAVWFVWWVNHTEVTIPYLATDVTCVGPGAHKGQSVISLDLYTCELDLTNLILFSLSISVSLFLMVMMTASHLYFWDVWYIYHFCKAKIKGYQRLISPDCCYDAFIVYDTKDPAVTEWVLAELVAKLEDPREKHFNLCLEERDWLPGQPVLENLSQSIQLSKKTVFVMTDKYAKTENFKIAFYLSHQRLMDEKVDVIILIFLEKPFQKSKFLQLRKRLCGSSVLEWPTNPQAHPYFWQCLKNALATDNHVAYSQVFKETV
- assay_info: TLR7 inhibition reporter assay (HEK-Blue SEAP reporter, gardiquimod stimulation)
- Assay type: cell-based
- measurement_conditions: HEK-Blue cells overexpressing human TLR7, gardiquimod 7.5 μM
pIC50: −log10 of the molar value.
experimental_endpoint: pIC50

compound	pIC50
Cc1cc(-c2[nH]c3ccc(C(=O)N4CCCN(C)CC4)cc3c2C(C)C)ccn1 [Example 114]	6.87
CCc1c(-c2ccc(OC)c(OC)c2)[nH]c2ccc(C(=O)N(CCOC)CCOC)cc12 [Example 77]	6.15
Cc1cc(-c2[nH]c3ccc(C(C)(C)C(=O)N4CCC5(CCN(C)C5)CC4)cc3c2C(C)C)ccn1 [Example 150]	7.66
CNCC(=O)N1CC2CN(C(=O)c3ccc4[nH]c(-c5ccc(OC)c(OC)c5)c(C(C)C)c4c3)CC2C1 (centres unmarked) [Example 16]	6.55
Cc1cc(-c2[nH]c3ccc(C(=O)N4CCCN(C)CC4)cc3c2CC(F)F)cc(C)n1 [Example 124]	6.89
Cc1cc(-c2[nH]c3ccc(C(C)(C)C(=O)N[C@@H]4CCCNC4)cc3c2C(C)C)ccn1 [Example 140]	7.40

[1] Cc1cc(-c2[nH]c3ccc(C(C)C(=O)NC4CCN(C(C)C)CC4)cc3c2C(C)C)ccn1 (centres unmarked) [Example 194]
[2] Cc1cc(-c2[nH]c3ccc(C(=O)NCCCN(C)C)cc3c2C(C)C)cc(C)n1 [Example 95]
Request: Of 1 and 2 , whose reported pIC50 is the larger number? Select an item and report its label.
Response: 2
(2: 7.30, 1: 6.82)

---

- assayed_target: UniProt Q9NYK1
- assay_info: TLR7 inhibition reporter assay (HEK-Blue SEAP reporter, gardiquimod stimulation)
- Type: cell-based
- measurement_conditions: HEK-Blue cells overexpressing human TLR7, gardiquimod 7.5 μM
pIC50: −log10 of the molar value.
experimental_endpoint: pIC50

Past entries and their recorded results:
compound	assayed_target	experimental_endpoint	result
Cc1cc(-c2[nH]c3ccc(C(C)(C)C(=O)NC4CCN(C(C)C)CC4)cc3c2C(C)C)ccn1	UniProt Q9NYK1	pIC50	7.60
CCc1c(-c2ccc(OC)c(OC)c2)[nH]c2ccc(C(=O)NC[C@@H](F)C(C)(C)O)cc12	UniProt Q9NYK1	pIC50	5.78

[a] CNCC(=O)N1CC2CN(C(=O)c3ccc4[nH]c(-c5ccnc(C)c5)c(C(C)C)c4c3)CC2C1 (centres unmarked)
[b] CCc1c(-c2ccnc(C)c2)[nH]c2ccc(C(=O)N3CC4CNCC4C3)cc12 (centres unmarked)
[c] CCc1c(-c2ccc(OC)c(OC)c2)[nH]c2ccc(C(=O)N(C)CCN(C)C)cc12
[d] Cc1cc(-c2[nH]c3ccc(C(C)(C)C(=O)N4CCCC5(CNC5)C4)cc3c2C(C)C)ccn1
[e] Cc1cc(-c2[nH]c3ccc(C(C)(C)C(=O)N4CC5(CCNCC5)C4)cc3c2C(C)C)ccn1
Request: Arrange the 5 compounds from largest to smallest pIC50. Use the labels to give the requested order.
Response: e, c, d, b, a
